# Tested on: PfHDP1 homeodomain (GST-tagged)
# ASSAY REMARKS: gcPBM binding intensity (ln(normalized median fluorescence intensity)); higher = stronger DNA binding
In all, about 25,000 sequences were measured (“ln(normalized median fluorescence intensity)”: median about 6.7, highest 2% from about 10 on). What follows is part of a selection rich in the highest values, with near analogues and random picks from the rest.
Can you tell me gcPBM binding intensity (ln) for the items I'm about to list?
Answer with a bare number; do not write a unit.

Inquiry: Fill in: gcPBM binding intensity (ln) of GGTGCACCCATATACACACACAAATACAATGATAAA [CACACA_site1132] is ___
Reply text: 10.2

Inquiry: Fill in: gcPBM binding intensity (ln) of AAAAAAATGAAACACACACACACATATATATATATA [CACACA_site1043] is ___
Reply text: 9.32

Inquiry: Fill in: gcPBM binding intensity (ln) of `TTACAACATGAAAATGTGCACATATATATATATATA` is ___
Reply text: 10.8

Inquiry: Fill in: gcPBM binding intensity (ln) of AATAAATATATATACACACCCATATATATATATATA [CACACA_site2595] is ___
Reply text: 9.48

Inquiry: Fill in: gcPBM binding intensity (ln) of TATGTGCACCCATATACACACACAAATACAATGATA [CACACA_site8295] is ___
Reply text: 10.7

====

# Tested on: PfHDP1 homeodomain (GST-tagged)
# ASSAY REMARKS: gcPBM binding intensity (ln(normalized median fluorescence intensity)); higher = stronger DNA binding
In all, about 25,000 sequences were measured (“ln(normalized median fluorescence intensity)”: median about 6.7, highest 2% from about 10 on). What follows is part of a selection rich in the highest values, with near analogues and random picks from the rest.
ENDPOINT NAME: gcPBM binding intensity (ln)
Answer with a bare number; do not write a unit.

Inquiry: Fill in: gcPBM binding intensity (ln) of TTCTTTTTCCAATTTGCACACCACAAAATTATATAT [CACACA_site2909] is ___
Reply text: 10.6

Inquiry: Fill in: gcPBM binding intensity (ln) of TATATATATTTTTATGCACACACAAAGAAAATTTTC [CACACA_site8931] is ___
Reply text: 10.1

Inquiry: Fill in: gcPBM binding intensity (ln) of ATTATATATATTTATGCACACAAAATATATTATATA [CACACA_site9244] is ___
Reply text: 10.1

Inquiry: Fill in: gcPBM binding intensity (ln) of TATATATTTTTATGCACACACAAAGAAAATTTTCCT [CACACA_site2863] is ___
Reply text: 10.8

Inquiry: Fill in: gcPBM binding intensity (ln) of TTAATTATAAGAAAAAGTACTCATTACATTATAGAA [XGTACX_site678] is ___
Reply text: 6.12

Inquiry: Fill in: gcPBM binding intensity (ln) of TACATATATTATTGCACACATATAAAATACCCCCAA [CACACA_site3895] is ___
Reply text: 10.8

Inquiry: Fill in: gcPBM binding intensity (ln) of ATAACCTAATAATACACACACATGAATATATATAAT [CACACA_site4689] is ___
Reply text: 7.17

Inquiry: Fill in: gcPBM binding intensity (ln) of ATGTTGCACAATGTTACACACACAATATATATCGTT [CACACA_site4833] is ___
Reply text: 10.7

Inquiry: Fill in: gcPBM binding intensity (ln) of ATATAGAATATATTAACATGCAATAAGTAAAGGGGG [TGCATGCA_site1022] is ___
Reply text: 7.05

Inquiry: Fill in: gcPBM binding intensity (ln) of TAATGTACATAAACCGCACACATATAAAAAAATAAA [CACACA_site2851] is ___
Reply text: 6.79

Inquiry: Fill in: gcPBM binding intensity (ln) of AATGAATCCTTATATACACACATTATTATATTATAT [CACACA_site3108] is ___
Reply text: 7.23

Inquiry: Fill in: gcPBM binding intensity (ln) of GTTGCACAATGTTACACACACAATATATATCGTTAA [CACACA_site1275] is ___
Reply text: 9.41

Inquiry: Fill in: gcPBM binding intensity (ln) of TATATATTCATAAAGTGTACATGTTTATATATATAT [XGTACX_site7585] is ___
Reply text: 8.53

Inquiry: Fill in: gcPBM binding intensity (ln) of GTTCTTTCAAATTATACACACCAAAAAAAAAAAAAA [CACACA_site5660] is ___
Reply text: 6.62

Inquiry: Fill in: gcPBM binding intensity (ln) of AACAAATGTTAAATGTTTAAGGAGAAAATAAAGACA [CACACA_negctrl_site1163] is ___
Reply text: 6.75

Inquiry: Fill in: gcPBM binding intensity (ln) of AATATATCTTATTTAACACACACAAAGAAAATAGAA [CACACA_site9242] is ___
Reply text: 7.34

Inquiry: Fill in: gcPBM binding intensity (ln) of TATATCTTATTTAACACACACAAAGAAAATAGAAAA [CACACA_site3732] is ___
Reply text: 6.81

Inquiry: Fill in: gcPBM binding intensity (ln) of AATTGTTAATGGTACGAACACACATATAAAGATGCA [CACACA_site2043] is ___
Reply text: 6.76

Inquiry: Fill in: gcPBM binding intensity (ln) of AACAATAAATTATTATGTACACATATATTATATATA [XGTACX_site4629] is ___
Reply text: 6.47

All figures here come from the supplement of paper PMC11417369.
